So I've got IC50 readings for human (hACC2) ACC2 (Homo sapiens), take a look.

q: Report IC50 for COc1ccc(F)cc1[C@H](Cn1c(=O)n(C(C)(C)C(N)=O)c(=O)c2c(C)c(-n3cccn3)sc21)OC1CCOCC1 [Compound I-4] please.
a: 0.01 to 0.04 µM

q: Report IC50 for COCCOc1ccc(F)cc1[C@H](Cn1c(=O)n(C(C)(C)C(=O)NC(C)C)c(=O)c2c(C)c(-n3cccn3)sc21)OC1CCOCC1 [Compound I-49] please.
a: 0.003 to 0.01 µM

q: Report IC50 for COc1ccc(F)cc1[C@H](Cn1c(=O)n(C(C)C(=O)N2CCCC2)c(=O)c2c(C)c(-n3cccn3)sc21)OCC(C)(C)O (stereo partly shown) [Compound I-66] please.
a: 0.01 to 0.04 µM

q: Report IC50 for COc1ccccc1[C@H](Cn1c(=O)n(C(C)(C)C(=O)O)c(=O)c2c(C)c(-n3cccn3)sc21)OCCC#N [Compound I-79] please.
a: 0.003 to 0.01 µM

====

molecular target: UniProt O00763
readout: IC50

Consider the following illustrative entries.
INSERT INTO results (record_smiles, readout, value_measured) VALUES
  ('COc1ccc(F)cc1[C@H](Cn1c(=O)n([C@@H](C)C(=O)N2CCCC2)c(=O)c2c(C)c(-n3cccn3)sc21)OC(C)C', 'IC50', '3 to 10 nM'),
  ('COc1ccccc1[C@H](Cn1c(=O)n(C(C)(C)C(=O)N2CCCC2)c(=O)c2c(C)c(-n3cccn3)sc21)OC(C)C', 'IC50', '3 to 10 nM'),
  ('Cc1c(-n2cccn2)sc2c1c(=O)n(C(C)(C)C(=O)NC(C)C)c(=O)n2C[C@H](OC1CCOCC1)c1cc(F)ccc1OCCO', 'IC50', '3 to 10 nM'),
  ('COc1ccc(F)cc1[C@H](Cn1c(=O)n(C(C)(C)C(=O)NC(C)C)c(=O)c2c(C)c(-n3cccn3)sc21)OC[C@@H](C)O', 'IC50', '3 to 10 nM'),
  ('COCCO[C@@H](Cn1c(=O)n(C(C)(C)C(=O)N2CCCC2)c(=O)c2c(C)c(-n3cccn3)sc21)c1cc(F)ccc1OC', 'IC50', '> 40 nM');

q: Report IC50 for `COc1ccccc1[C@H](Cn1c(=O)n(C(C)(C)C(=O)N2CCCC2)c(=O)c2c(C)c(-n3cccn3)sc21)OCC(C)C` please.
a: 3 to 10 nM

q: Report IC50 for `COc1ccccc1[C@H](Cn1c(=O)n(C(C)(C)C(=O)O)c(=O)c2c(C)c(-n3cccn3)sc21)O[C@H]1CC[C@@H](O)CC1` please.
a: 3 to 10 nM

q: Report IC50 for `COCCO[C@@H](Cn1c(=O)n([C@@H](C)C(=O)N2CCCC2)c(=O)c2c(C)c(-n3cccn3)sc21)c1cc(F)ccc1OC` please.
a: 3 to 10 nM

q: Report IC50 for `COc1ccccc1[C@H](Cn1c(=O)n(C(C)(C)C(=O)N2CCCCC2)c(=O)c2c(C)c(-n3cccn3)sc21)OC(C)C` please.
a: 10 to 40 nM

q: Report IC50 for `COCCO[C@@H](Cn1c(=O)n([C@H](C)C(=O)N2CCCC2)c(=O)c2c(C)c(-n3cccn3)sc21)c1cc(F)ccc1OC` please.
a: > 40 nM

====

biological target: human (hACC2) ACC2 (Homo sapiens, UniProt O00763)
Sequence (O00763 whole entry): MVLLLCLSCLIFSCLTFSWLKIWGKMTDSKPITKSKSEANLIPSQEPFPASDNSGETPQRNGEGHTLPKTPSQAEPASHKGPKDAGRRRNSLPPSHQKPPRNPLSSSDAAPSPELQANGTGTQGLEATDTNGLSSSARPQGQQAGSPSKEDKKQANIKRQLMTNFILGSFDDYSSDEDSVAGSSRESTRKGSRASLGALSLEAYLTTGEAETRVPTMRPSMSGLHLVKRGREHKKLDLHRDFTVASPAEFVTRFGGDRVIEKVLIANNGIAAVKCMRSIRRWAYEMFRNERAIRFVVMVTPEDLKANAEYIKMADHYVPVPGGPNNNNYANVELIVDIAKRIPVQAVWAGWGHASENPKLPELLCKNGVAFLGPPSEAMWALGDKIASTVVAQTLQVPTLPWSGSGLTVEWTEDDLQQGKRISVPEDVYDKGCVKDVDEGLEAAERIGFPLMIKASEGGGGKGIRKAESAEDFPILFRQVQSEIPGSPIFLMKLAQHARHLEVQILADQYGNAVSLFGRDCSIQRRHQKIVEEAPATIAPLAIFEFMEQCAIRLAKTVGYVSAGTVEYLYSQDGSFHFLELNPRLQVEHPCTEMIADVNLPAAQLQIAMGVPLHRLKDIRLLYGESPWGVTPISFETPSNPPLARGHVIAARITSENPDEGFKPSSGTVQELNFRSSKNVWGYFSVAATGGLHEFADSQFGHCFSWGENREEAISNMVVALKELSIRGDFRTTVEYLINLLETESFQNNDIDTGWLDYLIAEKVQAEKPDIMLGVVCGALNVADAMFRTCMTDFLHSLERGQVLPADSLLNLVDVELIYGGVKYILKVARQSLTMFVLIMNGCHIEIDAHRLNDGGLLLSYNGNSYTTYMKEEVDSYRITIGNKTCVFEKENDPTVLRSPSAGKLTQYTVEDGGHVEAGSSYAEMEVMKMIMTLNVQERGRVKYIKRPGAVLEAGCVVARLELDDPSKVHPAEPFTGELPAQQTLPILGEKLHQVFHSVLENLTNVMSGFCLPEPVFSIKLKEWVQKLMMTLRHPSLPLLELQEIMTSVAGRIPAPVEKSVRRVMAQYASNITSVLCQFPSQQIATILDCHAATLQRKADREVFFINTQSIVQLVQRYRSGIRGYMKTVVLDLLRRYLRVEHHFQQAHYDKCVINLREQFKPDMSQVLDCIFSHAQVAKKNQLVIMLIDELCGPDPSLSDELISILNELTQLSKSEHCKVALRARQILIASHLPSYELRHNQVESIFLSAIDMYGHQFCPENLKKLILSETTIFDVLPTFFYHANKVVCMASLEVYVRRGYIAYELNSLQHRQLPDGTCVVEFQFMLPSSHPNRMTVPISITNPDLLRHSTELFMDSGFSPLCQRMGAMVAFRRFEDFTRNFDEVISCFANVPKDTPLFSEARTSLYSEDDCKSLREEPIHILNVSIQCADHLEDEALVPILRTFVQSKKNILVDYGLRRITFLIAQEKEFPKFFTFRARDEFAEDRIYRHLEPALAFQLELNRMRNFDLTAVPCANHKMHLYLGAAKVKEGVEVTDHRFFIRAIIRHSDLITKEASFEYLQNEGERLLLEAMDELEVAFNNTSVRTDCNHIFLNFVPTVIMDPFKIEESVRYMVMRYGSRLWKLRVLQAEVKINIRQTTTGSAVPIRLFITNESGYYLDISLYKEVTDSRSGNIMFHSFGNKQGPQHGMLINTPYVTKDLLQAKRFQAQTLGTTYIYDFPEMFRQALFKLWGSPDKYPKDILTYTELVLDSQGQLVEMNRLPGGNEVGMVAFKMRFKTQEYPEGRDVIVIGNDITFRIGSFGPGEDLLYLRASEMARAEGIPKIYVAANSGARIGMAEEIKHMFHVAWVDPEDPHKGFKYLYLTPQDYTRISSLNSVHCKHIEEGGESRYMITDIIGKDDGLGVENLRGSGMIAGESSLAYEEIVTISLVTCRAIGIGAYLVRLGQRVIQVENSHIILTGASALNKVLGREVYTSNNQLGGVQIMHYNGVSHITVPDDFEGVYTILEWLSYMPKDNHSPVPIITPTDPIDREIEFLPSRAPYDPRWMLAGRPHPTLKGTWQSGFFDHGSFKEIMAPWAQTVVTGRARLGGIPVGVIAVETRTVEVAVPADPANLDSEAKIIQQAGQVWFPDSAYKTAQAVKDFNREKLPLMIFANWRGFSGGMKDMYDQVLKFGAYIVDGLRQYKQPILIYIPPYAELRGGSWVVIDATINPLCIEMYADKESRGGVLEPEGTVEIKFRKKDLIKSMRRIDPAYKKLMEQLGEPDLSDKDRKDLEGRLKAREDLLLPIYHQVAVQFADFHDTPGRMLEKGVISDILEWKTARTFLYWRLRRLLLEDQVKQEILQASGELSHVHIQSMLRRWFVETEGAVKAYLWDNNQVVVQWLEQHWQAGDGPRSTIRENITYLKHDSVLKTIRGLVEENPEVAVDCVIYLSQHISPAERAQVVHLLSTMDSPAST
pIC50: −log10 of the molar value.
readout: pIC50

Consider the following illustrative entries.
INSERT INTO measurements (compound, experimental_system, value_measured) VALUES
  ('CCO[C@@H](Cn1c(=O)n(C(C)(C)C(=O)NC(C)C)c(=O)c2c(C)c(-n3cccn3)sc21)c1cc(F)ccc1OC [Compound I-33]', 'human (hACC2) ACC2 (Homo sapiens, UniProt O00763)', '7.40 to 8.00'),
  ('COc1ccc(F)cc1[C@H](Cn1c(=O)n(C(C)(C)C(=O)N2CCCC2)c(=O)c2c(C)c(-n3cccn3)sc21)OCC(C)(C)O [Compound I-42]', 'human (hACC2) ACC2 (Homo sapiens, UniProt O00763)', '8.00 to 8.52'),
  ('COc1ccccc1[C@H](Cn1c(=O)n(C(C)(C)C(=O)NC(C)C)c(=O)c2c(C)c(-n3cccn3)sc21)OC1CCOCC1 [Compound I-11]', 'human (hACC2) ACC2 (Homo sapiens, UniProt O00763)', '7.40 to 8.00'),
  ('COc1ccc(F)cc1[C@H](Cn1c(=O)n(C(C)(C)C(=O)NC(C)C)c(=O)c2c(C)c(-n3cccn3)sc21)OCCO [Compound I-35]', 'human (hACC2) ACC2 (Homo sapiens, UniProt O00763)', '7.40 to 8.00');

Please look at the following compound next.
q: Report pIC50 for COc1ccccc1[C@H](Cn1c(=O)n(C(C)(C)C(=O)NC(C)C)c(=O)c2c(C)c(-n3cccn3)sc21)OCC(C)C [Compound I-21] please.
a: 7.40 to 8.00
